Exercise: state measured polymerase ribozyme fitness (log ratio) for each of the variants provided.
B1: TPR t1 (parent)
chain: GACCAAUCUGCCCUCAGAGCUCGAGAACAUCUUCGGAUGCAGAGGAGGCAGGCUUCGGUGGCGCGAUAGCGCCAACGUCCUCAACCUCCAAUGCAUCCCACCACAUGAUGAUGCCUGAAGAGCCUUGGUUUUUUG

- Variants of: B1
- test.details: polymerase ribozyme fitness, log enrichment relative to wild type (log ratio); higher = more active; in vitro selection for triplet polymerase activity
Give your answer as a number; write no unit.

polymerase ribozyme fitness (log ratio) reported for this variant A6U C13G A26U A43U C76A C115G : -7.08

polymerase ribozyme fitness (log ratio) reported for this variant U7A C53U C86U A90G G122A : -1.97

polymerase ribozyme fitness (log ratio) reported for this variant G44A C82G : -1.66

polymerase ribozyme fitness (log ratio) reported for this variant C89A U129G : -2.64

polymerase ribozyme fitness (log ratio) reported for this variant A83U U125A : -0.797

polymerase ribozyme fitness (log ratio) reported for this variant C3G U106C C123G : -1.58

polymerase ribozyme fitness (log ratio) reported for this variant A90C C97U U112C C114A : -3.18

polymerase ribozyme fitness (log ratio) reported for this variant G45A A103U : -7.16

polymerase ribozyme fitness (log ratio) reported for this variant C11G G39A C49G C53U G69A G120C : -2.46

polymerase ribozyme fitness (log ratio) reported for this variant A29U G61A : -1.45

polymerase ribozyme fitness (log ratio) reported for this variant G47C A111G C123U : -3.06

polymerase ribozyme fitness (log ratio) reported for this variant G10U G35C : -5.02

polymerase ribozyme fitness (log ratio) reported for this variant C4U G42U U59A : -2.49

polymerase ribozyme fitness (log ratio) reported for this variant C53U G61A C82A C86G U133A : -1.32

polymerase ribozyme fitness (log ratio) reported for this variant C76G U81C C94A G117A : -2.22

polymerase ribozyme fitness (log ratio) reported for this variant G48A C85U : -0.302

polymerase ribozyme fitness (log ratio) reported for this variant C3U G69U G113C : -1.33

polymerase ribozyme fitness (log ratio) reported for this variant A2U C11U C22A A41C G71U C82A C88U A121G : -6.23

polymerase ribozyme fitness (log ratio) reported for this variant C72U C86A A103C : -5.58

polymerase ribozyme fitness (log ratio) reported for this variant `G77C` : -0.424

polymerase ribozyme fitness (log ratio) reported for this variant C56A A100C : -1.19

polymerase ribozyme fitness (log ratio) reported for this variant C40G C64U : -1.16
